# Protocol Notes: In vivo pharmacokinetics
# Set-up: species or system mouse
# Protocol Conditions: male, C57/BL6, mouse, ip; Intraperitoneal, 5 mg/kg, mice, plasma
Reported Property: AUC(0-inf) (ng·h/mL)
// return numeric value only (unit: ng·h/mL, not printed)

Name the recorded AUC(0-inf) of the item CCCCC1(C2CCCC2)Cc2cc(OCCCCCC(=O)O)c(Cl)c(Cl)c2C1=O (centres unmarked) in your answer.
18200

Report AUC(0-inf) for CCCCC1(C2CCCC2)Cc2cc(OCCCC(=O)O)c(Cl)c(Cl)c2C1=O (centres unmarked)
23000

---

# Protocol Notes: In vivo pharmacokinetics
# Design: species or system mouse
# Protocol Conditions: male, C57/BL6, mouse, ip; Intraperitoneal, 5 mg/kg, mice, plasma
# Cmax values compiled below
Give the value, in units of ng/mL, as a plain number.

[[record]]
compound = "CCCCC1(C2CCCC2)Cc2cc(OCCCC(=O)O)c(Cl)c(Cl)c2C1=O (centres unmarked) [SN-401]"
display_unit = "ng/mL"
result = 4370


For the compound CCCCC1(C2CCCC2)Cc2cc(OCCCCCC(=O)O)c(Cl)c(Cl)c2C1=O (centres unmarked) [SN-406] , give its reported Cmax.
4300
